The measurements presented in this section are drawn from PubChem BioAssay (NCI).

System: RXF 393 renal
protocol_text: NCI tumour cell line growth inhibition, 48 h
Consider the following molecules; for each one, report its TGI.
Answers are plain numbers, in µM.

Guide cases for TGI, answers given:
| molecule | TGI [µM] |
| --- | --- |
| Cc1cc(Cl)nc(N(CCCNc2ccnc3cc(Cl)ccc23)Cc2ccco2)n1 | 4.55 |
| Nc1ncnc2c1ncn2C1CC(OCc2ccccc2[N+](=O)[O-])C(CO)O1 (stereo not drawn) | 21.4 |
| N#C[C@H](c1nc2ccccc2s1)c1nc2ccccc2nc1Cl | 32 |
| O=C1/C=C/[C@@H](O)[C@@H]2C[C@@H](O)C[C@H]2/C=C/CCC[C@H](C(F)(F)F)O1 | 38.7 |
| CN1CSC(=S)N(Cc2ccccc2)C1 | 24 |

I'm hoping you can list TGI for every molecule here, please.
1. C[C@H]1S[C@H](c2c(Cl)cccc2Cl)N2Cc3ccccc3N=C12
2. N#CC1c2ccccc2C=CN1C(=O)N(c1ccccc1)c1ccccc1 (stereo not drawn)
3. Cn1cc(C2=C(c3cn(CCCCCSC(=N)N)c4ccccc34)C(=O)NC2=O)c2ccccc21

Found:
1. 30.4
2. 3.2
3. 5.68

Can you give me TGI for all of these, one by one?
1. c1cc2c(cn1)Nc1ccncc1S2
2. COc1cccc(/C=N/[N-]C(N)=O)c1[O-].[Cu+2].[OH3+].c1ccc(-c2ccccn2)nc1
3. COc1ccc(C(OCC2OC(n3ccc(NC(=O)c4ccccc4)nc3=O)CC2OP2(=S)SCCS2)(c2ccccc2)c2ccc(OC)cc2)cc1 (stereo not drawn)
4. CC1=C(C(=O)Nc2cc(F)c(F)cc2F)C(c2ccc([N+](=O)[O-])cc2)C(C(=O)Nc2cc(F)c(F)cc2F)=C(C)N1

Found:
42.3
40.8
88.1
63.2

Provide the reported TGI of each entry below, same order.
1. COc1cc2c(=O)[nH]c3cc([N+](=O)[O-])ccc3c2cc1[N+](=O)[O-]
2. CC1CC(=O)N(N(C)C)C(C#N)(C#N)C1(C#N)C#N (stereo not drawn)

Found:
1: 92.2; 2: 26.6

Working through the 2 molecules below one at a time, give TGI for each.
1. N=c1c2c(=N)n3c(nc2nc2n1-c1ccccc1Sc1ccccc1-2)sc1cc(Cl)ccc13
2. O=C(Nc1ccccc1)c1cc(S(=O)(=O)N2CCNNC2=O)c(S)cc1Cl

Found:
1. 9.52
2. 74.4

====

Tested on: SN12C renal
protocol_text: NCI tumour cell line growth inhibition, 48 h
For each of the compounds below, state its TGI.

| compound | TGI |
| --- | --- |
| CCOc1ccc(NC(=O)CC2C(=O)Nc3ccccc3S2(=O)=O)cc1 (stereo not given) | > 100 µM |
| CCOC(=O)Oc1ccc2c(c1)c(=O)c1c(NCCN(CC)CC)ccc3nnn2c31 | 15.1 µM |

Value sought for every listed compound: TGI.
1. C=CCOCn1cc(C)c(=O)[nH]c1=O
2. COc1ccc2oc(=O)c(-c3csc(C)n3)cc2c1
3. Fc1cccc(F)c1C1SCc2nc3ccc(Cl)cc3n21 (stereo not given)

Found:
1: > 100 µM; 2: > 100 µM; 3: > 100 µM

====

Tested on: K-562 leukemia
protocol_text: NCI tumour cell line growth inhibition, 48 h; in the data active = GI50 below about 0.43 µM; inactive = the rest
Please reply with one of these outcomes: T (active), F (inactive)

A selection of reference data follows.
| compound | answer_label |
| --- | --- |
| CCCCCCCCCCCC[n+]1ccc2ccccc2c1 | T |
| CCN1CCN(C(=O)[C@]23CCC(C)(C)C[C@@H]2C2=CC[C@@H]4[C@@]5(C)C/C(=C/c6ccncc6)C(=O)C(C)(C)[C@@H]5CC[C@@]4(C)[C@]2(C)CC3)CC1 | F |
| CCCCCCCCCCCCCC[C@@H](O)[C@H]1CC[C@H]([C@H]2CC[C@H]([C@H](O)CCCCCC[C@@H](O)CC3=C[C@H](C)OC3=O)O2)O1 | F |
| CC[n+]1c(/C=C/C=C2\N(C)c3ccccc3C2(C)C)sc2ccccc21 | F |

Lookup: For this compound, state the assay outcome: `COC(=O)c1ccc(NC(=O)Oc2ccc(N(CCCl)CCCl)cc2)cc1`
Found: F

Lookup: Hello, I am checking results. What call was entered for `COc1ccc(/C(C#N)=C2C=C/C(=N/O)c3ccccc3\2)cc1` ?
Found: T

Lookup: Give the logged outcome of this assay for the following compound: `CN(CCCNC(=O)CCOCCOCCOCCNC(=O)Cc1ccc2ccc3cccc4ccc1c2c34)CCCNc1cc(-c2ccc3ccccc3c2)nc2ccccc12`
Found: T

Lookup: Record request — test call for c1ccc2c3c([nH]c2c1)C(c1ccc(C2NCCc4c2[nH]c2ccccc42)cc1)NCC3 (centres undefined)
Found: T

Lookup: Hi team, can someone confirm the assay call for `CC[C@H](C)[C@H](NC(=O)CN(C)C)C(=O)N(C)[C@H](C[C@@H](OC(C)=O)c1nc(C(=O)NC23CC(C(=O)OC)(C2)C3)cs1)C(C)C` ?
Found: T

Lookup: Recorded test call requested for `CN(CC(=O)N(Cc1ccc(C2CCCCC2)cc1)c1ccc(C(=O)O)cc1)S(=O)(=O)c1c(F)c(F)c(F)c(F)c1F`
Found: F

Lookup: Kindly provide the recorded test outcome for the following compound: `CC1=C(Nc2ccc(N3CCN(C)CC3)cc2)C(=O)c2cncnc2C1=O`
Found: F

Lookup: What is the recorded call for this compound in the test? `COc1ccc2c(OCc3nnc4ccc(-c5ccccc5)nn34)ccnc2c1`
Found: F

Lookup: Assay outcome for N#CC1c2ccccc2C=CN1C(=O)N(c1ccccc1)c1ccccc1 (centres undefined) : what was it?
Found: F

Lookup: Hey, what did the test say about `CO[C@H]1C[C@@H]2CC[C@@H](C)[C@@](O)(O2)C(=O)C(=O)N2CCCC[C@H]2C(=O)O[C@H]([C@H](C)C[C@@H]2CC[C@@H](OCCO)[C@H](OC)C2)CC(=O)[C@H](C)C=C(C)[C@@H](O)[C@@H](OC)C(=O)[C@H](C)C[C@H](C)/C=C/C=C/C=C1C` ?
Found: F
